Reported pIC50 values for a set of compounds
Test system: human lung cancer strain NCI-H441;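 further: cell proliferation inhibition after four days measured by CellTiter-Glo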
pIC50: −log10 of the molar value. Where a SMILES comes first, the peptide text is derived from it. Bridges are numbered along the chain shown (N, C = ends). [ ]: non-standard residue; d: D form. The star is where a group is joined. hPhe(3,5-F2-4-CF3) = N[C@@H](CCc1cc(F)c(C(F)(F)F)c(F)c1)C(=O)O; NPrPhe(4-CF3) = CCCN[C@@H](Cc1ccc(C(F)(F)F)cc1)C(=O)O; NMeGly(cPent) = CN[C@H](C(=O)O)C1CCCC1; NMeD = CN[C@@H](CC(=O)O)C(=O)O; NMeL = CN[C@@H](CC(C)C)C(=O)O; αMeS = C[C@](N)(CO)C(=O)O; Morpholide = C1CN(*)CCO1; Sar = CNCC(=O)O; Allyl = C=CC*
assayEndpoint: pIC50

>  <compound>
CC[C@H](C)[C@@H]1NC(=O)[C@@H](CC(C)C)N(C)C(=O)C[C@@H](C(=O)N(C)C)N(C)C(=O)[C@H](C2CCCC2)N(C)C(=O)C2(CCCC2)NC(=O)[C@@H]2CCCN2C(=O)[C@@H](CCc2ccc(C(F)(F)F)c(Cl)c2)NC(=O)CN(C)C(=O)[C@@H](Cc2ccc(C(F)(F)F)cc2)N2C/C=C\COC[C@@H](C2=O)N(C)C(=O)CN(C)C1=O

>  <assayEndpoint>
pIC50

>  <measured>
6.80

$$$$
>  <compound>
CCC[C@H]1C(=O)N[C@@H]([C@@H](C)CC)C(=O)N(C)CC(=O)N(C)[C@H]2C/C=C\CCN(C2=O)[C@@H](Cc2ccc(C(F)(F)F)cc2)C(=O)N(C)CC(=O)N[C@@H](CCc2ccc(Cl)c(Cl)c2)C(=O)N2C[C@H](OCC)C[C@H]2C(=O)NC2(CC(C)(C)C2)C(=O)N(C)[C@@H](CC2CCC2)C(=O)N(C)[C@H](C(=O)N(C)C)CC(=O)N1C

>  <assayEndpoint>
pIC50

>  <measured>
7.59

$$$$
>  <compound>
CCO[C@@H]1C[C@H]2C(=O)NC3(CCC3)C(=O)N(C)[C@@H](C3CCCC3)C(=O)N(C)[C@H](C(=O)N(C)C)CC(=O)N(C)[C@@H](CC(C)C)C(=O)N[C@@H]([C@@H](C)CC)C(=O)N(C)CC(=O)N(C)[C@H]3C/C=C\CCN(C3=O)[C@@H](CC3CCCCC3)C(=O)N(C)CC(=O)N[C@@H](CCc3cc(F)c(C(F)(F)F)c(F)c3)C(=O)N2C1

>  <assayEndpoint>
pIC50

>  <measured>
7.95

$$$$
>  <compound>
C=CCOC[C@]1(C)NC(=O)[C@@H]2CCCN2C(=O)[C@H](CCc2cc(F)c(C(F)(F)F)c(F)c2)NC(=O)CN(C)C(=O)[C@H](Cc2ccc(C(F)(F)F)cc2)N(CCC)C(=O)CN(C)C(=O)CN(C)C(=O)[C@H]([C@@H](C)CC)NC(=O)[C@H](CC(C)C)N(C)C(=O)C[C@@H](C(=O)N2CCOCC2)N(C)C(=O)[C@H](C2CCCC2)N(C)C1=O [PP0763] ([NMeL]I[Sar][Sar][NPrPhe(4-CF3)][Sar][hPhe(3,5-F2-4-CF3)]P[αMeS](Allyl)[NMeGly(cPent)][NMeD]-Morpholide; lactam N-11)

>  <assayEndpoint>
pIC50

>  <measured>
7.08

$$$$
>  <compound>
C#CC[C@H]1C(=O)N[C@@H]([C@@H](C)CC)C(=O)N(C)CC(=O)N(C)[C@H]2CC[C@@H](C)CN(C2=O)[C@@H](Cc2ccc(C(F)(F)F)cc2)C(=O)N(C)CC(=O)N[C@@H](CCc2ccc(C(F)(F)F)c(Cl)c2)C(=O)N2CCC[C@H]2C(=O)NC2(CCCC2)C(=O)N(C)[C@@H](C2CCCC2)C(=O)N(C)[C@H](C(=O)N(C)C)CC(=O)N1C

>  <assayEndpoint>
pIC50

>  <measured>
7.96

$$$$
